// endpoint IC50 / system UniProtKB O43570
Sequence (O43570 25-354): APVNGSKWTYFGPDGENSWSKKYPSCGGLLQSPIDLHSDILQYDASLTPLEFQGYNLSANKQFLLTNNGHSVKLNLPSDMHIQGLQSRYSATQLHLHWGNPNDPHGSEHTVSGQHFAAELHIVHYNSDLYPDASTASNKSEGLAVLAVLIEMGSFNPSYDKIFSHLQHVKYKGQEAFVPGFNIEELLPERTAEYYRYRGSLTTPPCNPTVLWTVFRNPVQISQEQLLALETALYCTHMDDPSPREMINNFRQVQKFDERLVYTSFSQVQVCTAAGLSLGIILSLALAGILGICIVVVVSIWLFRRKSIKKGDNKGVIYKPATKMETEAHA
value_type: IC50 (nM)

compound	display_unit	IC50
COc1ccc2[nH]c(=O)c(/C=N/c3c(N)n(Cc4ccccc4)c(=O)[nH]c3=O)cc2c1 [Compound 10i]	nM	230

A = CCn1c(N)c(/N=C/c2cc3cccc(C)c3[nH]c2=O)c(=O)[nH]c1=O [Compound 10f]
B = CCn1c(N)c(/N=C/c2cc3ccccc3[nH]c2=O)c(=O)[nH]c1=O [Compound 10c]
C = Nc1[nH]c(=O)[nH]c(=O)c1/N=C/c1cc2ccccc2[nH]c1=O [Compound 10a]
INPUT: List these items ordered by IC50, big to small. // format: requested-order list of labels
OUTPUT: B, C, A
(B: 490 nM, C: 320 nM, A: 170 nM)

I = COc1ccc2[nH]c(=O)c(/C=N/c3c(N)n(C)c(=S)[nH]c3=O)cc2c1 [Compound 10l]
II = COc1ccc2[nH]c(=O)c(/C=N/c3c(N)[nH]c(=O)[nH]c3=O)cc2c1 [Compound 10h]
INPUT: // pick larger IC50 from pair: I vs II API: response body contains the label of the selected item.
OUTPUT: II
(II: 400 nM, I: 190 nM)

I = Nc1c(/N=C/c2cc3ccccc3[nH]c2=O)c(=O)[nH]c(=O)n1Cc1ccccc1 [Compound 10b]
II = Cn1c(N)c(/N=C/c2cc3ccccc3[nH]c2=O)c(=O)[nH]c1=S [Compound 10e]
INPUT: Which has the higher IC50, I or II ? Output the label that corresponds to your choice.
OUTPUT: II
(II: 590 nM, I: 350 nM)

* * *

The following compounds each carry a recorded IC50 for hCA I (Homo sapiens, UniProt P00915).
value_type: IC50 (nM)

compound	IC50 [nM]
CCn1c(N)c(/N=C/c2cc3cc(OC)ccc3[nH]c2=O)c(=O)[nH]c1=O [Compound 10j]	890

I = CCn1c(N)c(/N=C/c2cc3cccc(C)c3[nH]c2=O)c(=O)[nH]c1=O [Compound 10f]
II = Nc1c(/N=C/c2cc3ccccc3[nH]c2=O)c(=O)[nH]c(=O)n1Cc1ccccc1 [Compound 10b]
III = COc1ccc2[nH]c(=O)c(/C=N/c3c(N)n(C)c(=O)[nH]c3=O)cc2c1 [Compound 10k]
INPUT: Highest IC50 first, then in falling order down to the smallest. Would you mind listing the labels in the order asked for?
OUTPUT: III, II, I

* * *

- measured_on: hCA I (Homo sapiens, UniProt P00915)
- Sequence (P00915 whole entry): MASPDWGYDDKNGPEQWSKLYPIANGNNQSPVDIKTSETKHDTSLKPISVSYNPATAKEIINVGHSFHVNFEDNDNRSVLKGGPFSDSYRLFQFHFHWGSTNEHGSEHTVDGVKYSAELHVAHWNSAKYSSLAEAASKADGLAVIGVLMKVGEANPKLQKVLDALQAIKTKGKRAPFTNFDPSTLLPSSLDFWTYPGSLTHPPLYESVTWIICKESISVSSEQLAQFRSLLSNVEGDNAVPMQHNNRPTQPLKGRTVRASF
- test: Carbonic anhydrase inhibition, colorimetric method (BioVision CA Inhibitor Screening Kit)
pKi: −log10 of the molar value.
value_type: pKi

Examples from the recorded data:
molecule	numeric_result
Cn1c(N)c(/N=C/c2cc3ccccc3[nH]c2=O)c(=O)[nH]c1=S [Compound 10e]	6.16
Nc1[nH]c(=O)[nH]c(=O)c1/N=C/c1cc2ccccc2[nH]c1=O [Compound 10a]	6.28
Cc1cccc2cc(/C=N/c3c(N)n(C)c(=S)[nH]c3=O)c(=O)[nH]c12 [Compound 10g]	5.92
COc1ccc2[nH]c(=O)c(/C=N/c3c(N)n(C)c(=S)[nH]c3=O)cc2c1 [Compound 10l]	6.85
COc1ccc2[nH]c(=O)c(/C=N/c3c(N)n(C)c(=O)[nH]c3=O)cc2c1 [Compound 10k]	5.93
CCn1c(N)c(/N=C/c2cc3cccc(C)c3[nH]c2=O)c(=O)[nH]c1=O [Compound 10f]	6.74
CCn1c(N)c(/N=C/c2cc3ccccc3[nH]c2=O)c(=O)[nH]c1=O [Compound 10c]	6.01
COc1ccc2[nH]c(=O)c(/C=N/c3c(N)[nH]c(=O)[nH]c3=O)cc2c1 [Compound 10h]	5.75

A = CCn1c(N)c(/N=C/c2cc3cc(OC)ccc3[nH]c2=O)c(=O)[nH]c1=O [Compound 10j]
B = COc1ccc2[nH]c(=O)c(/C=N/c3c(N)n(Cc4ccccc4)c(=O)[nH]c3=O)cc2c1 [Compound 10i]
INPUT: Identify the entry with the smaller pKi: A or B . # reply format: chosen label
OUTPUT: B

A = Nc1c(/N=C/c2cc3ccccc3[nH]c2=O)c(=O)[nH]c(=O)n1Cc1ccccc1 [Compound 10b]
B = Cn1c(N)c(/N=C/c2cc3ccccc3[nH]c2=O)c(=O)[nH]c1=O [Compound 10d]
INPUT: For the two items A and B , which reports the higher pKi value? Which one? Tell me its label.
OUTPUT: B
(B: 6.89, A: 6.25)

Origin of measurements: paper PMC9146896
